Where do these numbers come from? They come from patent US12398121B2.

measured.on: ER Alpha-LBD (GST) (Homo sapiens, UniProt P03372)
Sequence (P03372 311-547 limits assumed): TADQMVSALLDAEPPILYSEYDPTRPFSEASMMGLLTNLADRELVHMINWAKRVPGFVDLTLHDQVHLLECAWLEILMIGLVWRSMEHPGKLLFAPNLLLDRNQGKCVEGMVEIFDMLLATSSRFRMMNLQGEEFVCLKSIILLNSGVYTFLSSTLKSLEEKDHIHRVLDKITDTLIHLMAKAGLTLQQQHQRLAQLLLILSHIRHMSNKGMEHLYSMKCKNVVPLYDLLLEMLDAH
Answer each item with its documented pKi.
Quick note: pKi values are minus log10 of concentrations in mol/L.

Task: Please provide the recorded pKi for O=C(c1ccc(OCCN2CCN(C(=O)c3cc(Cc4n[nH]c(=O)c5ccccc45)ccc3F)CC2)cc1)c1c(-c2ccc(O)cc2)sc2cc(O)ccc12 [Compound 2.13] , tested on ER Alpha-LBD (GST) (Homo sapiens, UniProt P03372).
Result: 8.48

Task: Again, but for CCC(=C(c1ccc(O)cc1)c1ccc(OCCN2CCN(C(=O)c3cc(Cc4n[nH]c(=O)c5ccccc45)ccc3F)CC2)cc1)c1ccccc1 [Compound 2.14]
Result: 8.46

Task: Query CN(CCCCCC(=O)N1CCN(C(=O)c2cc(Cc3n[nH]c(=O)c4ccccc34)ccc2F)CC1)CCOc1ccc(C(=O)c2c(-c3ccc(O)cc3)sc3cc(O)ccc23)cc1 [Compound 2.4] next
Result: 8.30
